- assayMethodText: chemical genetic growth profiling, strain panel (AID 1159580);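 note: tested at 20 µM; growth read once vehicle control cultures reached saturation at 30 °C; 1 = growth at the plate median or of vehicle wells; lower values mean less growth of the strain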
- details: S. cerevisiae deletion strains, growth OD, locus YLR370C, strain arc18, active compounds read low
In all, about 5,500 compounds went through this assay and about 2,000 (36%) were called active. Another 18% or so got no clear call; they are omitted. The list shows a part of the results.
Measured normalized growth by item
Reply briefly: the number, and no unit.

Worked cases, answers included:
O=C(Oc1cc(O)cc2c1C[C@@H](OC(=O)c1cc(O)c(O)c(O)c1)[C@@H](c1cc(O)c(O)c(O)c1)O2)c1cc(O)c(O)c(O)c1 : 1.01
C#CCN(C)Cc1ccccc1 : 0.987
COc1ccc(-c2coc3cc(O)ccc3c2=O)c(O)c1O : 0.916
OCCc1ccccc1 : 0.988
Cc1ccc(C(=O)Nc2ccc(S(=O)(=O)O)c3cc(S(=O)(=O)O)cc(S(=O)(=O)O)c23)cc1NC(=O)c1cccc(NC(=O)Nc2cccc(C(=O)Nc3cc(C(=O)Nc4ccc(S(=O)(=O)O)c5cc(S(=O)(=O)O)cc(S(=O)(=O)O)c45)ccc3C)c2)c1 : 1.03
O=C1CCC(N2C(=O)c3ccccc3C2=O)C(=O)N1 (stereo unspecified) : 1.03
O=c1c(-c2ccc(O)cc2)coc2cc(O)ccc12 : 0.982
O=C(O)c1cc2cc(F)ccc2[nH]1 : 0.989

Record `O=C(O[C@@H]1Cc2c(O)cc(O)cc2O[C@@H]1c1ccc(O)c(O)c1)c1cc(O)c(O)c(O)c1` , field normalized growth: 0.935

Record `Nc1nc(=S)c2[nH]cnc2[nH]1` , field normalized growth: 0.974

---

- assayMethodText: chemical genetic growth profiling, strain panel (AID 1159580)
- details: S. cerevisiae deletion strains, growth OD, locus YDR137W, strain rgp1, active compounds read low
Out of some 5,500 compounds screened, about 2,000 (36%) were called active. Another 18% or so got no clear call; they are omitted. The list shows a part of the results.
Measured normalized growth by item

Worked cases, answers included:
CC[C@@]1(O)C[C@H](O[C@H]2C[C@H](N(C)C)[C@H](O)[C@H](C)O2)c2c(cc3c(c2O)C(=O)c2c(O)ccc(O)c2C3=O)[C@H]1C(=O)OC : 0.703 (active)
COc1ccc([C@H]2Oc3c(I)c(OC)cc(OC)c3C[C@@H]2O)cc1OC : 0.982 (inactive)
CCCCCCCCCCC[C@@H](C[C@H]1OC(=O)[C@H]1CCCCCC)OC(=O)[C@@H](CC(C)C)NC=O : 0.978 (inactive)
CC[C@@]1(O)C[C@H](O)c2c(cc3c(c2O)C(=O)c2c(O)ccc(O)c2C3=O)[C@H]1C(=O)OC : 0.707 (active)
CC(=O)Oc1cc(OC(C)=O)c2c(c1)O[C@H](c1ccc(OC(C)=O)c(OC(C)=O)c1)[C@H](OC(C)=O)C2 : 1.02 (inactive)

Record `COC(=O)/C=C/C(C)=C/C=C/C(C)=C/C=C/C=C(C)/C=C/C=C(C)/C=C/C(=O)O` , field normalized growth: 1.05 (inactive)

Record `C[n+]1c2cc(N)ccc2cc2ccc(N)cc21` , field normalized growth: 0.616 (active)

---

- assayMethodText: chemical genetic growth profiling, strain panel (AID 1159580)
- details: S. cerevisiae deletion strains, growth OD, locus YNL071W, strain lat1, active compounds read low
The campaign covered roughly 5,500 compounds. About 2,000 (36%) were called active. About 18% were inconclusive and are not listed. This is one part of the list.
readoutType: normalized growth
Reply briefly: the number, and no unit.

Worked cases, answers included:
CCCCCCCCCCC[C@@H](C[C@H]1OC(=O)[C@H]1CCCCCC)OC(=O)[C@@H](CC(C)C)NC=O : 1.02
Cn1c(=O)c2c(ncn2CC(O)CO)n(C)c1=O (stereo unspecified) : 0.975
C=CCc1ccc(O)c(OC)c1 : 0.959
O=c1cccc2ccc(O)c(O)c2c1O : 0.87

Record O=C1CCC(N2C(=O)c3ccccc3C2=O)C(=O)N1 (stereo unspecified) , field normalized growth: 1.03

Record `Cc1ncc(CNC(=O)N(CCCl)N=O)c(N)n1` , field normalized growth: 1.01

---

Measured normalized growth by item
- assayMethodText: chemical genetic growth profiling, strain panel (AID 1159580)
- details: S. cerevisiae deletion strains, growth OD, locus YOR069W, strain VPS5, active compounds read low
About 2,000 (36%) of roughly 5,500 compounds were called active. Inconclusive results (about 18%) are left out. The list shows a part of the results.
Reply briefly: the number, and no unit.

Worked cases, answers included:
CCC1(O)CC(OC2CC(N(C)C)C(OC3CC(O)C(OC4CCC(=O)C(C)O4)C(C)O3)C(C)O2)c2c(cc3c(c2O)C(=O)c2c(O)cccc2C3=O)C1C(=O)OC (stereo not drawn) : 1
CC[C@@]1(O)C[C@H](O[C@H]2C[C@H](N(C)C)[C@H](O)[C@H](C)O2)c2c(cc3c(c2O)C(=O)c2c(O)cccc2C3=O)[C@H]1C(=O)OC : 0.895

Now for another entry.
Record C=C1CCC2[C@](C)(CO)[C@H](O)CC[C@@]2(C)[C@@H]1C/C=C1/C(=O)OC[C@H]1O (stereo partly drawn) , field normalized growth: 1.01

---

Measured normalized growth by item
- assayMethodText: chemical genetic growth profiling, strain panel (AID 1159580);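 note: tested at 20 µM; growth read once vehicle control cultures reached saturation at 30 °C; 1 = growth at the plate median or of vehicle wells; lower values mean less growth of the strain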
- details: S. cerevisiae deletion strains, growth OD, locus YKL190W, strain CNB1, active compounds read low
Among all 5,500 compounds or so, about 2,000 (36%) were called active. Not shown: some 18% with an inconclusive outcome. The list shows a part of the results.
Reply briefly: the number, and no unit.

Worked cases, answers included:
CC1(C)S[C@@H]2[C@H](NC(=O)[C@H](N)c3ccccc3)C(=O)N2[C@H]1C(=O)O : 1.01
CC[C@@H](C(=O)C(C)[C@@H](O)[C@H](C)CCc1ccc(C)c(O)c1C(=O)O)C1OC(CC)(C2CC[C@](O)(CC)[C@H](C)O2)C[C@@H]1C (stereo partly drawn) : 1
CC1COc2c(N3CCN(C)CC3)c(F)cc3c(=O)c(C(=O)O)cn1c23 (stereo not drawn) : 1.01
CC1CCc2cc(F)cc3c(=O)c(C(=O)O)cn1c23 (stereo not drawn) : 0.991
CCCCNC(=O)NS(=O)(=O)c1ccc(C)cc1 : 0.991

Record CCn1cc(C(=O)O)c(=O)c2cc(F)c(N3CCNC(C)C3)c(F)c21 (stereo not drawn) , field normalized growth: 0.995

Record `CSc1nc(N)n(-c2ccccc2)n1` , field normalized growth: 1.01

Record `CC[C@H]1OC(=O)[C@H](C)[C@@H](O[C@H]2C[C@@](C)(OC)[C@@H](O)[C@H](C)O2)[C@H](C)[C@@H](O[C@@H]2O[C@H](C)C[C@H](N(C)C)[C@H]2O)[C@](C)(OC)C[C@@H](C)C(=O)[C@H](C)[C@@H](O)[C@]1(C)O` , field normalized growth: 0.967

---

- assayMethodText: chemical genetic growth profiling, strain panel (AID 1159580);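 note: tested at 20 µM; growth read once vehicle control cultures reached saturation at 30 °C; 1 = growth at the plate median or of vehicle wells; lower values mean less growth of the strain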
- details: S. cerevisiae deletion strains, growth OD, locus YCL061C, strain MRC1, active compounds read low
About 2,000 (36%) of roughly 5,500 compounds were called active. About 18% were inconclusive and are not listed. The list shows a part of the results.
readoutType: normalized growth
Reply briefly: the number, and no unit.

Clc1ccc(C(c2ccc(Cl)cc2)C(Cl)(Cl)Cl)cc1 : 1.01
COc1ccc(C(c2ccc(OC)cc2)C(Cl)(Cl)Cl)cc1 : 1.01
Nc1nc(=S)c2[nH]cnc2[nH]1 : 0.993
CSc1c(-c2ccccc2)c(N)nn1S(=O)(=O)c1ccccc1 : 0.993

Record CCCCC/C=C/CCC(=O)N[C@H]1[C@H](Oc2c3cc4cc2Oc2ccc(cc2Cl)[C@@H](O[C@@H]2O[C@H](CO)[C@@H](O)[C@H](O)[C@H]2NC(C)=O)[C@@H]2NC(=O)[C@H](NC(=O)[C@@H]4NC(=O)[C@H]4NC(=O)C(Cc5ccc(c(Cl)c5)O3)NC(=O)[C@H](N)c3ccc(O)c(c3)Oc3cc(O)cc4c3)c3ccc(O)c(c3)-c3c(OC4O[C@H](CO)[C@@H](O)[C@H](O)[C@@H]4O)cc(O)cc3[C@@H](C(=O)O)NC2=O)O[C@H](CO)[C@@H](O)[C@@H]1O (some centres not stated) , field normalized growth: 0.999

Record COc1ccc(OC)c(C(O)CNC(=O)CN)c1 (configuration not stated) , field normalized growth: 1.01

Record COC(=O)C1=COC(OC2OC(CO)C(O)C(O)C2O)C2C(C)CC(=O)C12 (configuration not stated) , field normalized growth: 1.03

---

Measured normalized growth by item
- assayMethodText: chemical genetic growth profiling, strain panel (AID 1159580);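 note: tested at 20 µM; growth read once vehicle control cultures reached saturation at 30 °C; 1 = growth at the plate median or of vehicle wells; lower values mean less growth of the strain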
- details: S. cerevisiae deletion strains, growth OD, locus YGL227W, strain vid30, active compounds read low
The whole screen tested about 5,500 compounds, of which about 2,000 (36%) were called active. Inconclusive results (about 18%) are left out. Some of the results follow.
Reply briefly: the number, and no unit.

C#CCN(C)Cc1ccccc1 : 1.01
O=S(=O)(O)c1cc(N=C=S)ccc1/C=C/c1ccc(N=C=S)cc1S(=O)(=O)O : 1.03

Record C/C=C(\C)C(=O)O[C@H]1C[C@@H](OC(C)=O)[C@@]2(C(=O)OC)CO[C@@H]3C2[C@]12CO[C@](O)(C(=O)OC)[C@H]2[C@](C)(C12O[C@@]1(C)[C@H]1C[C@@H]2OC2OC=C[C@@]21O)[C@@H]3O (some centres undefined) , field normalized growth: 0.99

Record `COc1cc(CNC(=O)CCCC/C=C/C(C)C)ccc1O` , field normalized growth: 0.975

Record CC1CCc2cc(F)cc3c(=O)c(C(=O)O)cn1c23 (centres undefined) , field normalized growth: 0.985
